assay remarks: Cmax in C3H/J mouse plasma at 5 mg/kg, po by LC-MS/MS analysis
Type: ADME, organism-based
Design: dose 5 mg/kg, route po
readout name: Cmax (ng/mL)

molecule	Cmax / ng/mL
O=C(O)C1CCN(c2ccc3c(=O)c4cccc(Cl)c4oc3c2)C1 (racemic)	580
O=C(O)[C@@H]1CCN(c2ccc3c(=O)c4cccc(Cl)c4oc3c2)C1	828

* * *

assay remarks: AUC (0 to infinity) in C3H/J mouse at 100 mg/kg, po by LC-MS/MS analysis
Type: ADME, organism-based
Design: time infinity, dose 100 mg/kg, route po
experimental conditions: in vivo
readout name: AUC(0-inf) (µg·h/mL)
API: value field is a number in µg·h/mL; no unit string.

Data request, read-out AUC(0-inf), for O=C(O)[C@@H]1CCN(c2ccc3c(=O)c4cccc(Cl)c4oc3c2)C1
120

* * *

assay remarks: Tmax in C3H/J mouse at 20 mg/kg, po by LC-MS/MS analysis
Type: ADME, organism-based
experimental conditions: in vivo
readout name: Tmax (min)
API: value field is a number in min; no unit string.

Data request, read-out Tmax, for O=C(O)[C@@H]1CCN(c2ccc3c(=O)c4cccc(Cl)c4oc3c2)C1
30

* * *

assay remarks: Permeability of the compound by PAMPA analysis
Assay type: ADME
experimental conditions: read-out: permeability
readout name: Papp (×10⁻⁶ cm/s)

compound	result unit	Papp
O=c1c2ccc(N3CCCCCC3)cc2oc2c(F)cccc12	×10⁻⁶ cm/s	1.64

P. O=C(O)C1CCN(c2ccc3c(=O)c4c(C(F)(F)F)ccc(Cl)c4oc3c2)C1 (stereo not given)
Q. O=C1CCCN1c1ccc2c(=O)c3cccc(F)c3oc2c1
Compare Papp: is it lower for P or for Q ? Give the label under which the chosen entry appears.
P

1. O=C(O)CC1CCN(c2ccc3c(=O)c4cccc(Cl)c4oc3c2)C1 (stereo not given)
2. CCOc1ccc(Cl)c2oc3cc(N4CCC(C(=O)O)C4)ccc3c(=O)c12 (stereo not given)
Between these two entries, 1 and 2 , state which has the higher Papp. Give the label under which the chosen entry appears.
1

* * *

assay remarks: Octanol-aqueous buffer distribution coefficient, log D of the compound at pH 7.4 by CAMDIS assay
Type: physicochemical
Recorded logD, one value per entry.

Study these solved cases before continuing.
molecule	logD
O=C(O)C1CCN(c2cc3oc4c(Cl)cccc4c(=O)c3cn2)C1 (stereo not drawn)	< -0.5
N#Cc1cc2c(=O)c3cccc(Cl)c3oc2cc1N1CCC(C(=O)O)C1 (stereo not drawn)	< -0.5

Now look at this entry.
Data request, read-out logD, for O=C(O)C1CCN(c2ccc3c(=O)c4c(F)ccc(Cl)c4oc3c2)C1 (stereo not drawn)
< -0.5

* * *

assay remarks: Metabolic stability in mouse hepatocytes assessed as intrinsic clearance
Format: ADME, cell-based, Hepatocyte
experimental conditions: read-out: CLH
readout name: CLint scaled (mL/min/kg)

compound	CLint scaled [mL/min/kg]
O=C(O)C1CCN(c2ccc3c(=O)c4c(C(F)(F)F)ccc(Cl)c4oc3c2)C1 (centres undefined)	11.9

1. O=C(O)C1CCN(c2ccc3c(=O)c4c(F)ccc(Cl)c4oc3c2)C1 (centres undefined)
2. O=C(Nc1ccc2c(=O)c3cccc(F)c3oc2c1)c1ccccc1F
3. O=C(O)C1CCN(c2ccc3c(=O)c4c(Cl)ccc(Cl)c4oc3c2)C1 (single isomer, unassigned)
Order the entries by their reported CLint scaled, beginning at the minimum. List each label, following the requested order.
3, 1, 2
